For each of the binders below, state its glycan array binding signal (z-score).
# assay.system: Neu5Ac(a2-3)Gal(b1-4)[Fuc(a1-3)]GlcNAc(b1-3)Gal(b1-4)[Fuc(a1-3)]GlcNAc(b1-3)Gal(b1-4)[Fuc(a1-3)]GlcNAc
# assay.method.text: glycan array binding signal (z-score within array); higher = stronger binding
# condition.info: glycan notation: IUPAC condensed, linker removed
The sample as a whole holds a higher share of the strongest signals than the screen did.
Number only, please.

**Query** Name the recorded glycan array binding signal (z-score) for DrGal9 (Danio rerio) (protein) MAFYQQPPYYNPRIPFSGPIQGGLQDGKSIIISGRVLPGANRFHVNLQCGSHSEANVALHFNPRYEDTDYVVNNSYLNRTWGSEERKYESPFAQGQTFTLQILVAQDKYKISTNGRHFMDYKHRIPFTQVDTVAVEGMVEVNSVAFQNPAGFIPPQAGYAPQYAVPPGCGFPAFPSAPNYTIPHKTVMNGGLHPGKNIVINGVVNPNAKSIIFNLCYRSGIAFHYNPRFDENVVVRNTNQMEKWGAEERFGGLPFHKGQPFQVTISCNPQHYNVFVNGKQEHTYKHRYTKLNDIDILEICGDLQLTSVQA .
**Result** -0.384

**Query** Name the recorded glycan array binding signal (z-score) for SLLPI (Homo sapiens), Q8IXA5 (protein) MVSALRGAPLIRVHSSPVSSPSVSGPRRLVSCLSSQSSALSQSGGGSTSAAGIEARSRALRRRWCPAGIMLLALVCLLSCLLPSSEAKLYGRCELARVLHDFGLDGYRGYSLADWVCLAYFTSGFNAAALDYEADGSTNNGIFQINSRRWCSNLTPNVPNVCRMYCSDLLNPNLKDTVICAMKITQEPQGLGYWEAWRHHCQGKDLTEWVDGCDF .
**Result** 0.311

**Query** Name the recorded glycan array binding signal (z-score) for NKp30 (Homo sapiens), O14931 (protein) MAWMLLLILIMVHPGSCALWVSQPPEIRTLEGSSAFLPCSFNASQGRLAIGSVTWFRDEVVPGKEVRNGTPERFGRLAPLASSRFLHDHQAELHIRDVRGHDASIYVCRVEVLGLGVGTGNGTRLVVRKEHPQLGAGTHADPEAPEAEGAPSVFLFPPKPKDTLMISRTPEVTCVVVDVSHEDPEVKFNWYVDGVEVHNAKTPREEQYNSTYRVVSVLTVLHQDWLNGKEYKCKVSNKALPAPIEKTISKAKGQPREPQVYTLPPSRDELTKNQVSLTCLVKGFYPSDIAVEWESNGQPENNYKTTPPVLDSDGSFFLYSKLTVDKSRWQQGNVFSCSVMHEALHNHYTQKSLSLSPGK .
**Result** -0.204
